B1: glmS ribozyme (parent)
chain: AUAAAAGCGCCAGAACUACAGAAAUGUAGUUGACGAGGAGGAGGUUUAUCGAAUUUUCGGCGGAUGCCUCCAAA

- Variants of: B1
- Test description: self-cleavage kobs at 160 uM GlcN6P; higher = faster cleavage; RNA array
- Condition notes: with glucosamine-6-phosphate
Variants at the floor of the assay were thinned out.
Test readout: self-cleavage kobs at 160 uM GlcN6P

INSERT INTO measurements (mutation_key, test_readout, reported) VALUES
  ('G13U A33C', 'self-cleavage kobs at 160 uM GlcN6P', '< 1e-05 s⁻¹'),
  ('A33C A39C A52U C70U', 'self-cleavage kobs at 160 uM GlcN6P', '< 1e-05 s⁻¹'),
  ('G7U G62A C67A', 'self-cleavage kobs at 160 uM GlcN6P', '< 1e-05 s⁻¹'),
  ('G7U C34G', 'self-cleavage kobs at 160 uM GlcN6P', '< 1e-05 s⁻¹'),
  ('G9C C71G', 'self-cleavage kobs at 160 uM GlcN6P', '< 1e-05 s⁻¹'),
  ('G13A U49A A64G', 'self-cleavage kobs at 160 uM GlcN6P', '< 1e-05 s⁻¹'),
  ('C8A G43A', 'self-cleavage kobs at 160 uM GlcN6P', '< 1e-05 s⁻¹'),
  ('G29C C34G U55C', 'self-cleavage kobs at 160 uM GlcN6P', '< 1e-05 s⁻¹');

self-cleavage kobs at 160 uM GlcN6P in this record for U57G G63C : < 1e-05 s⁻¹

self-cleavage kobs at 160 uM GlcN6P in this record for G7C G51U : < 1e-05 s⁻¹

self-cleavage kobs at 160 uM GlcN6P in this record for A14C A36G : < 1e-05 s⁻¹

self-cleavage kobs at 160 uM GlcN6P in this record for G32U G60U : < 1e-05 s⁻¹

self-cleavage kobs at 160 uM GlcN6P in this record for C8G C67U : < 1e-05 s⁻¹

self-cleavage kobs at 160 uM GlcN6P in this record for G32C G38C : < 1e-05 s⁻¹

self-cleavage kobs at 160 uM GlcN6P in this record for C16U U49C : < 1e-05 s⁻¹

self-cleavage kobs at 160 uM GlcN6P in this record for A33C G59C : < 1e-05 s⁻¹

self-cleavage kobs at 160 uM GlcN6P in this record for G29C A33C C61A : < 1e-05 s⁻¹

self-cleavage kobs at 160 uM GlcN6P in this record for G35U C70U : < 1e-05 s⁻¹

Reference source: the supplement of paper PMC7125110
